Values from paper PMC11345841

target: ABL2 (Homo sapiens); construct: purchased Eurofins DiscoverX KINOMEscan (scanTK); experiment: KINOMEscan ScanTK; format: binding; details: @1000nM
Sequence (P42684 whole entry): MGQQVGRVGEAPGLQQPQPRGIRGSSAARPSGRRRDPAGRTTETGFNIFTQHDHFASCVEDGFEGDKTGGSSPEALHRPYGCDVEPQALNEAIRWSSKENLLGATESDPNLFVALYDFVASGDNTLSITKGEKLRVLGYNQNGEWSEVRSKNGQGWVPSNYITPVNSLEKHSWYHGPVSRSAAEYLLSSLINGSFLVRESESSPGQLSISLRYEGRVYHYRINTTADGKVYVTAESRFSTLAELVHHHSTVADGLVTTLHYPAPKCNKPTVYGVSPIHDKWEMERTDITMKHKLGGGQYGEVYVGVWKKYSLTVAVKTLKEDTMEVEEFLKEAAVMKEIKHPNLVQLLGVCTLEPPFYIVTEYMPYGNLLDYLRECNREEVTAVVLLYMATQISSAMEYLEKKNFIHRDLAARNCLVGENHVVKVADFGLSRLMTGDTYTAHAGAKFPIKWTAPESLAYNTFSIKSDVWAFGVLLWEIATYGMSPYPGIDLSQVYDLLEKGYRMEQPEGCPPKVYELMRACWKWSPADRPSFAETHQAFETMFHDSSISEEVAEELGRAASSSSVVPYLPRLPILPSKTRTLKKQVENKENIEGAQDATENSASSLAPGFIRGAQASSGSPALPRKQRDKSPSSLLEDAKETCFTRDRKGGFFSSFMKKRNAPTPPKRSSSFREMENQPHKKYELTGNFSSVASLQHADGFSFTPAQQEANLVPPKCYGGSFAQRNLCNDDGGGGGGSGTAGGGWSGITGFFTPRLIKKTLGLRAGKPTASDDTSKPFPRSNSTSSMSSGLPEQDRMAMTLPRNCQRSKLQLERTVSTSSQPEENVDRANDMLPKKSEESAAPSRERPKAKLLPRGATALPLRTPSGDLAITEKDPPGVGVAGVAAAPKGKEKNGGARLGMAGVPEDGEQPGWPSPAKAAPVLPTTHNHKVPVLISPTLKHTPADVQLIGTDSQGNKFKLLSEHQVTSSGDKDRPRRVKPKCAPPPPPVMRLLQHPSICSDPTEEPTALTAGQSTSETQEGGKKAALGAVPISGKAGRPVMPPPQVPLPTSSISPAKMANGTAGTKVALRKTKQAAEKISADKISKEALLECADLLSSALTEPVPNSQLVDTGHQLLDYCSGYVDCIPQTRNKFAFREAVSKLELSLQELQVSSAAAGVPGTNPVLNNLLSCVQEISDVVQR
endpoint_name: difference in %Control from reference compound Ib at 1 µM (%)

Some compounds with known difference in %Control from reference compound Ib at 1 µM results, for comparison:
{"columns": ["compound", "system_tested", "result_unit", "endpoint_result"],
 "data": [
  ["CNC(=O)c1cnc(S(C)(=O)=O)nc1N1CCCC(n2nc(-c3ccc(Oc4ccccc4)cc3)c3c(N)ncnc32)C1 (stereo not shown)", "ABL2 (Homo sapiens)", "%", 48],
  ["Cc1cnc(S(C)(=O)=O)nc1N1CCCC(n2nc(-c3ccc(Oc4ccccc4)cc3)c3c(N)ncnc32)C1 (stereo not shown)", "ABL2 (Homo sapiens)", "%", 29]
]}

(P) COC(=O)c1cnc(S(C)(=O)=O)nc1N1CCCC(n2nc(-c3ccc(Oc4ccccc4)cc3)c3c(N)ncnc32)C1 (stereo not shown)
(Q) CCOC(=O)c1cnc(S(C)(=O)=O)nc1N1CCC[C@@H](n2nc(-c3ccc(Oc4ccccc4)cc3)c3c(N)ncnc32)C1
Problem: Could you please tell me which of these two has the higher difference in %Control from reference compound Ib at 1 µM: P or Q ? Refer to your chosen item by its label in the answer.
Solution: Q
